Tested On: Retinoic acid receptor RXR-alpha (Homo sapiens) (UniProt P19793)
Sequence (P19793 whole entry, looked up): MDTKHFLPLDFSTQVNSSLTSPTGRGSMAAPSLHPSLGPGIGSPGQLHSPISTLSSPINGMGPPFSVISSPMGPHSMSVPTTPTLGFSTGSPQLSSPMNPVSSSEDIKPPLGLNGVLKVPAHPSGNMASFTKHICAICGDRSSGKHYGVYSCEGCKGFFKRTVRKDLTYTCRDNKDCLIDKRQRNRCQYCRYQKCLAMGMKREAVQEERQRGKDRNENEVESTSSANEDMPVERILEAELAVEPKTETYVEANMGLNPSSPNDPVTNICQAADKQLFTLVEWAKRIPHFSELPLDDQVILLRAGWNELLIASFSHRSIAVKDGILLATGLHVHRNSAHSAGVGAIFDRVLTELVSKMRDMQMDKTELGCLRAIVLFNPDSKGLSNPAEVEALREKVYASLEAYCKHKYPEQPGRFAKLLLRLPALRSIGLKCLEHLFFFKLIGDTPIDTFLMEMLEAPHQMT
Protocol Summary: qHTS assay to identify small molecule agonists of the RXR signaling pathway (AID 1159527); note: nearly all actives have a fitted effect of over 35% in size; note: potency is the fitted concentration of half-maximal effect
Assay Conditions: HEK293T RXRa-UAS-bla, beta-lactamase ratio, 16 h; series mostly up to 76.8 µM
Inconclusive results are not listed. Activity calls are given as the source filed them. Calls come from the whole dose curve.
Measured Quantity: Potency

>>> df
   compound_string             result
0     CCCCCOC(C)=O  0.279 µM (active)
1        CCCC(C)=O           inactive
2     Cc1cccc(O)c1           inactive

====

Protocol Summary: qHTS assay to identify small molecule agonists of the TGF-beta/Smad signaling pathway (AID 1346859); note: % is set by controls: 0 for no effect and ±100 for the full control effect
Assay Conditions: SBE-bla HEK293T, TGF-beta/Smad beta-lactamase reporter, 5 h; series mostly up to 76.8 µM
Records with an inconclusive call do not appear. The source made the active and inactive calls. Calls come from the whole dose curve; as a rule, active = well fitted activation curve with a large enough effect in the signal ratio in the repeat runs (not every such curve was filed as active); inconclusive = weak or mixed curves; inactive = flat fitted curve, though single readings scatter; the % refers to the signal ratio.
Measured Quantity: outcome

Previously resolved entries follow.
>>> print(df.to_string())
                                   compound    result
0                               CCCCCC(N)=O  inactive
1                                 CCCC(C)=O  inactive
2  O=C(O)CCCC[C@@H]1SC[C@@H]2NC(=O)N[C@@H]21  inactive
3                           OCC(CO)(CBr)CBr  inactive
4              C=CCOC(=O)c1ccccc1C(=O)OCC=C  inactive

Working through the 4 compounds below one at a time, give outcome for each.
1. c1ccc(OCCOc2ccccc2)cc1
2. CC1CCC2CC1C2(C)C (stereo not drawn)
3. CC(C)(C)[C@@H](O)[C@@H](Cc1ccc(Cl)cc1)n1cncn1
4. CCCCOC(=O)COc1ccc(Cl)cc1Cl

[A]
["inactive", "inactive", "inactive", "inactive"]

Working through the 8 compounds below one at a time, give outcome for each.
1. O=C(O)c1cc(O)c(O)c(O)c1
2. CC(=O)Nc1ccccc1
3. CCC(O)OCCCOC (stereo not drawn)
4. O=C1CCC(N2C(=O)c3ccccc3C2=O)C(=O)N1 (stereo not drawn)
5. Nc1ccccc1[N+](=O)[O-]
6. NNc1nncc2ccccc12
7. CN(C)CCOCCN(C)C
8. O=C(O)c1ccccc1C(c1ccc(O)cc1)c1ccc(O)cc1

[A]
1: inactive; 2: inactive; 3: inactive; 4: inactive; 5: inactive; 6: inactive; 7: inactive; 8: inactive

[Q] // query outcome value for entry "O=C=NCCCCCCN=C=O"
[A] inactive

====

Protocol Summary: qHTS assay to identify small molecule HDAC inhibitors (AID 1259364);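 note: wild-type HCT-116 cells with endogenous class I/II HDAC activity; nearly all actives have a fitted effect of over 45% in size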
Assay Conditions: HCT-116 HDAC-Glo I/II luminescence, 2 h; series mostly up to 92.4 µM
Results filed as inconclusive are left out. The source made the active and inactive calls. Calls come from the whole dose curve; as a rule, active = well fitted inhibition curve with a large enough effect in the repeat runs; inconclusive = weak or mixed curves; inactive = flat fitted curve, though single readings scatter.
Pick one: t = active, f = inactive

>>> print(df.to_string())
                               compound  class
0  C/C=C1/CC2C=CC1C2 (stereo not given)      f
1              COc1ccc(Nc2ccccc2)c(C)c1      f
2             CC(C)c1ccc(S(=O)(=O)O)cc1      f
3                c1ccc(OCCOc2ccccc2)cc1      t
4    O=C(O)c1cc(C(=O)O)cc(S(=O)(=O)O)c1      f

[Q] In this assay, the call recorded for "CCCCCCCCCCCCS" was what?
[A] f

[Q] In this assay, the call recorded for CCCCC(CC)COC(=O)CS (stereo not given) was what?
[A] f

[Q] In this assay, the call recorded for "CC(=O)CC(=O)Nc1ccccc1" was what?
[A] f

[Q] In this assay, the call recorded for "COc1ccc(NC(C)=O)cc1N" was what?
[A] f

[Q] In this assay, the call recorded for "CC(=O)OCC(=O)[C@@]12N=C(C)O[C@@H]1C[C@H]1[C@@H]3CCC4=CC(=O)C=C[C@]4(C)[C@H]3[C@@H](O)C[C@@]12C" was what?
[A] f

[Q] In this assay, the call recorded for "C=C(C)C(=O)Nc1ccc(Cl)c(Cl)c1" was what?
[A] f

====

Tested On: Estrogen receptor (Homo sapiens)
Protocol Summary: qHTS assay to identify small molecule antagonists of the estrogen receptor alpha (ER-alpha) signaling pathway using the BG1 cell line in the presence of 0.1 nM 17-beta-estradiol (AID 1259244); note: % is set by controls: 0 for no effect and ±100 for the full control effect; nearly all actives have a fitted effect of over 50% in size
Assay Conditions: VM7Luc4E2 (BG1) ERE-luciferase, antagonist mode, 0.1 nM E2, 22 h; series mostly up to 92.4 µM
From the text: National Center for Advancing Translational Sciences [NCATS] NIH Chemical Genomics Center [NCGC] U.S. Environmental Protection Agency [EPA] National Institutes of Environmental Health Sciences [NIEHS] National Toxicology Program [NTP] U.S. Food and Drug Administration [FDA] Estrogen receptor (ER), a member of the nuclear hormone receptor plays an important role in development, metabolic homeostasis and reproduction. […]
Results filed as inconclusive are left out. The source made the active and inactive calls. Calls follow the shape of the dose curve; as a rule, active = well fitted inhibition curve with a large enough effect in the repeat runs; inconclusive = weak or mixed curves; inactive = no such curve, though single readings can be large or run the other way.
Pick one: active, inactive

Solved cases (6 shown):
>>> print(df.to_string())
                                   compound                         tested_on     class
0           COc1cc(Cc2cnc(N)nc2N)cc(OC)c1OC  Estrogen receptor (Homo sapiens)  inactive
1              C=CCOC(=O)c1ccccc1C(=O)OCC=C  Estrogen receptor (Homo sapiens)  inactive
2  CC[C@H](C)C(=O)O[C@H]1C[C@@H](C)C=C2C=C[C@H](C)[C@H](CC[C@@H]3C[C@@H](O)CC(=O)O3)[C@H]21  Estrogen receptor (Homo sapiens)  inactive
3                 CC(C)c1ccc(S(=O)(=O)O)cc1  Estrogen receptor (Homo sapiens)  inactive
4                              COS(C)(=O)=O  Estrogen receptor (Homo sapiens)  inactive
5      CC1=CCC2CC1C2(C)C (stereo not drawn)  Estrogen receptor (Homo sapiens)  inactive

[Q] In this assay, the call recorded for "c1ccc(OCCOc2ccccc2)cc1" was what?
[A] inactive

[Q] In this assay, the call recorded for "CN(C)CCCN" was what?
[A] inactive

[Q] In this assay, the call recorded for "CCCCCCCCCC" was what?
[A] inactive

[Q] In this assay, the call recorded for "CC(=O)CC(=O)Nc1ccccc1C" was what?
[A] inactive

[Q] In this assay, the call recorded for "CC(=O)Nc1ccccc1" was what?
[A] inactive

====

Protocol Summary: qHTS assay for identifying genotoxic compounds that show differential cytotoxicity against isogenic chicken DT40 cell lines with known DNA damage response pathways - wild type cell line (AID 743012); note: % is set by controls: 0 for no effect and ±100 for the full control effect; nearly all actives have a fitted effect of over 60% in size
Assay Conditions: DT40 wild type chicken cells viability, CellTiter-Glo, 40 h; series mostly up to 68.4 µM
Records with an inconclusive call do not appear. The source made the active and inactive calls. The call rests on the fitted dose curve; in most records, active means well fitted cell-killing curve with a large enough effect in the repeat runs; inconclusive means weak or mixed curves, or effect the other way; inactive means no such curve, though single readings can be large or run the other way.
Pick one: true (1) (active), false (0) (inactive)

Solved cases (3 shown):
In [3]: df
Out[3]:
                                   compound      class
0  O=[N+]([O-])c1ccc(/C=C/c2ccc([N+](=O)[O-])cc2S(=O)(=O)O)c(S(=O)(=O)O)c1  false (0)
1          CC(O)COCC(C)O (stereo not drawn)  false (0)
2                               ON=C1CCCCC1  false (0)

[Q] In this assay, the call recorded for "CCCCN(CCCC)CCCC" was what?
[A] false (0)

[Q] In this assay, the call recorded for "CCCCOC(=O)COc1ccc(Cl)cc1Cl" was what?
[A] false (0)

[Q] In this assay, the call recorded for "FC(F)(F)c1ccc(Cl)c(Cl)c1" was what?
[A] false (0)

[Q] In this assay, the call recorded for "C=C(C)C(=O)OCCOCCOCCOC(=O)C(=C)C" was what?
[A] false (0)

====

Tested On: Cytochrome P450 2C9 (Homo sapiens) (UniProt P11712)
Sequence (P11712 whole entry, looked up): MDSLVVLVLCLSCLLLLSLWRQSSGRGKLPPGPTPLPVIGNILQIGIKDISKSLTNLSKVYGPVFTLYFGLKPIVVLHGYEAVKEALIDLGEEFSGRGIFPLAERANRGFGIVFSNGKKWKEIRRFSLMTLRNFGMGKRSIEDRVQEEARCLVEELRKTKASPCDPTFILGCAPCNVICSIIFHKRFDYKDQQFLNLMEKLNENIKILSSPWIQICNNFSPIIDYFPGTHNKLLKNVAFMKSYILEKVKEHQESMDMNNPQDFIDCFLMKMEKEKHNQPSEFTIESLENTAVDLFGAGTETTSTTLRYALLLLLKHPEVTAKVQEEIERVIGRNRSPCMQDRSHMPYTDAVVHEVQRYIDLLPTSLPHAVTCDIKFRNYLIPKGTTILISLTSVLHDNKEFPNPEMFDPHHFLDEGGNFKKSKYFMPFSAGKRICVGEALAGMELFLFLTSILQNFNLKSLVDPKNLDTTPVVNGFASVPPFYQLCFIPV
Protocol Summary: Cytochrome P450 Family 2 Subfamily C Member 9 (CYP2C9) small molecule antagonists: luciferase reporter qHTS assay (AID 1671198); note: nearly all actives have a fitted effect of over 50% in size; note: potency is the fitted concentration of half-maximal effect
Assay Conditions: P450-Glo CYP2C9 enzyme assay, luciferin luminescence; series mostly up to 115 µM
Records with an inconclusive call do not appear. Activity calls are given as the source filed them. Calls follow the shape of the dose curve; as a rule, active = well fitted inhibition curve with a large enough effect in the repeat runs; inconclusive = weak or mixed curves; inactive = no such curve, though single readings can be large or run the other way.
Measured Quantity: Potency

Previously resolved entries follow.
>>> df
                               compound  measured_quantity          result
0                        CCCCCCCC(=O)OC            Potency        inactive
1              CCOC(=O)NNc1nncc2ccccc12            Potency        inactive
2                          CCCCCOC(C)=O            Potency  10 µM (active)
3  CC1CCC2CC1C2(C)C (centres undefined)            Potency        inactive
4                      Cc1cc(C)c(C)cc1C            Potency        inactive

Working through the 4 compounds below one at a time, give Potency for each.
1. CC(C)c1ccc(S(=O)(=O)O)cc1
2. OCC(CO)(CBr)CBr
3. OCCOCCOCCO
4. CCCCCCCCCCCCCCCO

[A]
["inactive", "inactive", "inactive", "40.3 µM (active)"]
